- assay text: Cell Viability - LYMP2-007 (AID 979);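 note: cells exposed to compound for 24 h before reading; nearly all actives have a fitted effect of over 60% in size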
- experimental parameters: LYMP2-007 lymphoblastoid cell viability; series mostly up to 92.2 µM
- Text: NIH Chemical Genomics Center [NCGC] NIH Molecular Libraries Screening Centers Network [MLSCN] National Institutes of Environmental Health Sciences [NIEHS] National Toxicology Program [NTP] We have developed a 1536-well cell-based assay for quantitative high throughput screening (qHTS) against a number of cell lines to determine in vitro cytotoxicity of small molecules. […] 8. Detection; Luminescence; Viewlux plate reader […]
Inconclusive results are not listed. Active and inactive are the calls of the source. Calls come from the whole dose curve; as a rule, active = well fitted cell-killing curve with a large enough effect; inconclusive = small, poorly fitted or top-dose-only effect; inactive = flat fitted curve, though single readings scatter.
Hi! Could you answer with just one of these? active, inactive

compound: C[C@]12CC[C@@H]3c4ccc(O)cc4CC[C@H]3[C@@H]1CC[C@@H]2O
classification: inactive
//
compound: O=c1ccc2ccccc2o1
classification: inactive
//
compound: O=C1OC(c2ccc(O)cc2)(c2ccc(O)cc2)c2ccccc21
classification: inactive
//
compound: CCCCCCc1ccc(O)cc1O
classification: inactive

What is the recorded call for this compound in the test? C=CCc1ccc(O)c(OC)c1
inactive
